RUN_DESCRIPTION: self-splicing fitness, log relative to wild type (ln ratio); higher = more splicing; Tetrahymena group I intron in knt gene, E. coli kanamycin selection, DiMSum; sequences stand for … in CUCUCU…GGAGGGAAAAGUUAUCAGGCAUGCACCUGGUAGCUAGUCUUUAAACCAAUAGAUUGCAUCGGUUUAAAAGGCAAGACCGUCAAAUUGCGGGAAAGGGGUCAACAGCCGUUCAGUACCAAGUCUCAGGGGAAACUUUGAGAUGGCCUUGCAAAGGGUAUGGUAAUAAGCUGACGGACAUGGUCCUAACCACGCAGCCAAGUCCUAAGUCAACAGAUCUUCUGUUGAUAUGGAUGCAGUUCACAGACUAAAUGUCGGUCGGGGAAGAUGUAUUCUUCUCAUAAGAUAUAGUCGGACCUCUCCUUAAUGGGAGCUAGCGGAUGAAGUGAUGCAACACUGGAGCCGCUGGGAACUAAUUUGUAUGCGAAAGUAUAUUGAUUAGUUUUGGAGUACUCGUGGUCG;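 note: selection with 25 µg/mL kanamycin versus none on LB agar overnight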
EXPERIMENTAL_CONDITIONS: 37 °C
Recorded self-splicing fitness (ln) determines the group label, using low = under -2, mid = from -2 up to -0.7, high = -0.7 and over

# example entries with known answers
GUCAAGCAAUAUUACGUGUC :: mid
CCCAAGCAAUAUUACGACCA :: low
CGUUAGCAAUAUUACGUAGC :: low
ACUCAGCAAUAUUACGAGUC :: low
CGACAGCAAUAUUACGCCGC :: mid
CCAUAGCAAUAUUACGUCCG :: high
AGUGAGCAAUAUUACGACUA :: high
GGGCAGCAAUAUUACGAGAG :: low

Problem: Please classify: `AGUCAGCAAUAUUACGCACA`
Solution: high

Problem: Please classify: `AAGAAGCAAUAUUACGAGCG`
Solution: mid

Problem: Please classify: `GCAGAGCAAUAUUACGUGAC`
Solution: mid

Problem: Please classify: `CUUCAGCAAUAUUACGCAAG`
Solution: mid

Problem: Please classify: `AUAGAGCAAUAUUACGUUCA`
Solution: high

Problem: Please classify: `CGCAAGCAAUAUUACGAAUC`
Solution: mid

Problem: Please classify: `UCCCAGCAAUAUUACGAAGA`
Solution: high
